Listed next: entries and their corresponding IC50.
target: human LAT-2 (Homo sapiens (Human), UniProt Q9UHI5); test: Inhibition of [14C] amino acid uptake into human LAT-2 stably expressing HEK293 cell line (uptake buffer, 1 min); details: HEK293 human LAT-2 stably expressing cells; Na+-free HBSS pH7.4; [14C]L-leucine or alanine 1 μM, uptake 1 min; read-out: LAT-2 inhibitory activity/IC50
Sequence (Q9UHI5 whole entry): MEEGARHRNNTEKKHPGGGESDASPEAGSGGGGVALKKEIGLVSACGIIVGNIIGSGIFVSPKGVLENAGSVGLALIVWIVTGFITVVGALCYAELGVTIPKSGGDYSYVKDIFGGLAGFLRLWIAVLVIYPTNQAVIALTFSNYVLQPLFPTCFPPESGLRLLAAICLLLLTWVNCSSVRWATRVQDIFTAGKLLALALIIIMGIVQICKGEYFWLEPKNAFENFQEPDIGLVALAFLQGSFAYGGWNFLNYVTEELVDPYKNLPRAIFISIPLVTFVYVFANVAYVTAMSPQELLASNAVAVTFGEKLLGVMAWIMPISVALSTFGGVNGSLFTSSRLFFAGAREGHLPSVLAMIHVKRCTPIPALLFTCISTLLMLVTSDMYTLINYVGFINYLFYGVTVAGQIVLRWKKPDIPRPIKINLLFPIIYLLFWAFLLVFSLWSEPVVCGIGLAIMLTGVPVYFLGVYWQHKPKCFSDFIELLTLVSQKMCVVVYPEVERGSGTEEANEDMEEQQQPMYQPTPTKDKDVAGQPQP
Sequence (P08195 102-630 partner): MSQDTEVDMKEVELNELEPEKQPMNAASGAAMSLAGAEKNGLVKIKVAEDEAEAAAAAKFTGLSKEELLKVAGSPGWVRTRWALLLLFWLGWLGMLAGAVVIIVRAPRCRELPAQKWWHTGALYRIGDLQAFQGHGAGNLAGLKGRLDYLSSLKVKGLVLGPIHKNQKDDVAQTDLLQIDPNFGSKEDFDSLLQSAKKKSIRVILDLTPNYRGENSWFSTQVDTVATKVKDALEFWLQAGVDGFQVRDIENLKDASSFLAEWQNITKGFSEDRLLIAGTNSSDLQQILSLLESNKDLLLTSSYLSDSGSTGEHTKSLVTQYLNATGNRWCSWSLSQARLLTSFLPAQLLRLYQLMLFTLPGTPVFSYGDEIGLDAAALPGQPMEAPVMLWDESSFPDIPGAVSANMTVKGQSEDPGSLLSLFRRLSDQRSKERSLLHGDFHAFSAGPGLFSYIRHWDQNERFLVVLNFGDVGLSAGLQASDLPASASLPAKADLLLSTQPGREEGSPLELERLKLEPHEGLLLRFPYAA
Counter-ions that a name gives are not always drawn.
Expressed in µM, but write only the number.

The following compounds have reported results that may help.
>  <compound>
CCC(C)c1ccc(OC(CCCCN)c2ccccc2)cc1 (centres unmarked)

>  <assay-system>
human LAT-2 (Homo sapiens (Human), UniProt Q9UHI5)

>  <readout-unit>
µM

>  <IC50>
253

$$$$
>  <compound>
NCCCC[C@@H](Oc1ccc(C(F)(F)F)cc1)c1ccccc1 [Example 66, fumarate]

>  <assay-system>
human LAT-2 (Homo sapiens (Human), UniProt Q9UHI5)

>  <readout-unit>
µM

>  <IC50>
194

$$$$
>  <compound>
NCCCC[C@@H](Oc1ccc(C(F)(F)F)c(F)c1)c1ccccc1.O=C(O)/C=C/C(=O)O [Example 68, fumarate]

>  <assay-system>
human LAT-2 (Homo sapiens (Human), UniProt Q9UHI5)

>  <readout-unit>
µM

>  <IC50>
156

$$$$
>  <compound>
NCCCCC(Oc1ccc(OC(F)(F)F)cc1)c1cccs1 (centres unmarked)

>  <assay-system>
human LAT-2 (Homo sapiens (Human), UniProt Q9UHI5)

>  <readout-unit>
µM

>  <IC50>
313

$$$$
>  <compound>
NCCCCC(Oc1ccc(C(F)(F)F)c(F)c1)c1cccs1 (centres unmarked)

>  <assay-system>
human LAT-2 (Homo sapiens (Human), UniProt Q9UHI5)

>  <readout-unit>
µM

>  <IC50>
300

$$$$

Item under review: NCCCC[C@H](Oc1ccc(OC(F)(F)F)cc1)c1ccccc1.O=C(O)/C=C/C(=O)O [Example 71, fumarate] . Reported IC50? 131

Item under review: NCCCC[C@@H](Oc1ccc(OC(F)(F)F)cc1)c1ccccc1.O=C(O)/C=C/C(=O)O [Example 70, fumarate] . Reported IC50? 131

Item under review: NCCCCC(Oc1ccc(C(F)(F)F)cc1)c1cccs1 (centres unmarked) . Reported IC50? 357
